Data origin, for the record: patent US12497460B2

Attribute: S/N
Test system: LXR (THP1/LXR-Luc cells)
Assay: LXR-luciferase reporter bioassay (Example 31)
Format: cell-based, human
Conditions: signal to noise, ratio of RLU of standard one over standard eight; 48 hours
Procedure: Generation of assay cell line. To test the efficacy of anti-MSR1 antibody-LXR conjugates in vitro, a cell-based LXR responsive luciferase reporter assay was developed. […] Assay protocol. […] Forty-eight hours later, luciferase activity was determined after the addition of One-Glo™ reagent (Promega, Cat #E6130) to each well. […] The signal to noise (S/N) was determined by calculating the ratio of RLU of standard one over RLU of standard eight for each of the unconjugated anti-MSR1 antibodies or free payloads. […]

{"molecule": "H1H27747P-N297Q-LP1 (conjugate) VH: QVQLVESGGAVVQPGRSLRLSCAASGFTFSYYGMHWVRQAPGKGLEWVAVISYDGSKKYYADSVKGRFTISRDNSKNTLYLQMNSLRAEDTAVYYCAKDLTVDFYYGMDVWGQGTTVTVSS VL: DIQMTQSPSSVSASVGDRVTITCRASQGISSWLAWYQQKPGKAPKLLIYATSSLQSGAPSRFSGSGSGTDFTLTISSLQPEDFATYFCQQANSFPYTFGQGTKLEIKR", "observed result": 20.6}
{"molecule": "H1H27734P-N297Q-LP1 (conjugate) VH: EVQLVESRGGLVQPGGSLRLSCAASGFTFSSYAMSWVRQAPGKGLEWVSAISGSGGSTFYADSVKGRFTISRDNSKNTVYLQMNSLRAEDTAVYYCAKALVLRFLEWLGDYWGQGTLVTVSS VL: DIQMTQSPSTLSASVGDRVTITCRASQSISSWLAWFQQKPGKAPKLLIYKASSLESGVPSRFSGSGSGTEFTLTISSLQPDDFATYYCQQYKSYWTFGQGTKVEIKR", "observed result": 17.8}

Any idea what S/N was measured for H1H27729P-N297Q-LP1 (conjugate) VH: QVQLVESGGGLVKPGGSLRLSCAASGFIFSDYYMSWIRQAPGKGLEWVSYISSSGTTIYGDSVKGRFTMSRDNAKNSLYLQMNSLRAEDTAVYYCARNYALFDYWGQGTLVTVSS VL: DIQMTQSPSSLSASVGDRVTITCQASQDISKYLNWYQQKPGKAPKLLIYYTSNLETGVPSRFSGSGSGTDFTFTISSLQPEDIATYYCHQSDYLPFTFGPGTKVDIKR ?
14.5
